meta.source: PubChem BioAssay AID1963451

// viability, T/C lookup, one value per entry
- System: 521955-158-R6-J3-PDC complex spheroid growth, % test/control;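 note: spheroids exposed to compounds for 7 days; 100% = DMSO vehicle control wells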
- ASSAY_NOTES: Anticancer human tumor 521955-158-R6-J3-PDC patient-derived pancreatic carcinoma cell line growth inhibition [Asc]
- EXPERIMENTAL_SETUP: second compound 3 µM; first compound 0.1 µM; stronger effect = lower value
OBSERVABLE: viability, T/C (%)

{"COMPOUND": "CCN1CCN(Cc2ccc(Nc3ncc(F)c(-c4cc(F)c5nc(C)n(C(C)C)c5c4)n3)nc2)CC1 + CCN1C(C(=O)NC23CCC(C(=O)O)(CC2)CC3)C(c2cccc(Cl)c2F)C2(C(=O)Nc3cc(Cl)ccc32)C12CCCCC2", "VALUE_UNIT": "%", "READOUT_VALUE": 84.8}
{"COMPOUND": "C#Cc1c(F)ccc2cc(O)cc(-c3ncc4c(N5CC6CCC(C5)N6)nc(OCC56CCCN5CC(F)C6)nc4c3F)c12 (stereo not given) + CCN1C(C(=O)NC23CCC(C(=O)O)(CC2)CC3)C(c2cccc(Cl)c2F)C2(C(=O)Nc3cc(Cl)ccc32)C12CCCCC2", "VALUE_UNIT": "%", "READOUT_VALUE": 48.4}
{"COMPOUND": "O=C(c1cc(Cc2n[nH]c(=O)c3ccccc23)ccc1F)N1CCN(C(=O)C2CC2)CC1 + CCN1C(C(=O)NC23CCC(C(=O)O)(CC2)CC3)C(c2cccc(Cl)c2F)C2(C(=O)Nc3cc(Cl)ccc32)C12CCCCC2", "VALUE_UNIT": "%", "READOUT_VALUE": 100}
{"COMPOUND": "CNC(C)C(=O)NC1CN(S(=O)(=O)c2cccc(S(=O)(=O)N3CCC4CCC(C(=O)NC(c5ccccc5)c5ccccc5)N4C(=O)C(NC(=O)C(C)NC)C3)c2)CCC2CCC(C(=O)NC(c3ccccc3)c3ccccc3)N2C1=O (stereo not given) + CCN1C(C(=O)NC23CCC(C(=O)O)(CC2)CC3)C(c2cccc(Cl)c2F)C2(C(=O)Nc3cc(Cl)ccc32)C12CCCCC2", "VALUE_UNIT": "%", "READOUT_VALUE": 86.2}
{"COMPOUND": "O=C(c1ccc(F)c(F)c1Nc1ccc(I)cc1F)N1CC(O)([C@@H]2CCCCN2)C1 + CCN1C(C(=O)NC23CCC(C(=O)O)(CC2)CC3)C(c2cccc(Cl)c2F)C2(C(=O)Nc3cc(Cl)ccc32)C12CCCCC2", "VALUE_UNIT": "%", "READOUT_VALUE": 78.5}
